target: human non-pancreatic sPLA2 (type IIa) (Homo sapiens, UniProt P14555); construct: Garvan Institute for Medical Research (provided, not a commercial vendor); assay: Assay for inhibition of human non-pancreatic sPLA2 (type IIa), mixed micelle colorimetric assay; conditions: recombinant hIIa-PLA2; substrate diheptanoyl thio-phosphatidyl choline, DTNB detection; IC50 from Dixon plot extrapolation; read-out: IC50, inhibition of human secretary PLA2
Sequence (P14555 21-144): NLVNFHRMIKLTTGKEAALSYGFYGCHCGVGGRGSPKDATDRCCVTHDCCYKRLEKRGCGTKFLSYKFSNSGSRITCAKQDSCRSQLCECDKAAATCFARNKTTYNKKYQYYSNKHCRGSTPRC
Reported IC50 values for the following molecules.
attribute.measured: IC50 (nM)

molecule="O=C(O)CCC(Cc1ccc(OCc2ccccc2)cc1)NC(=O)CCCCCCc1cccnc1 (racemic)" attribute_measured=IC50 readout_number=1520
molecule="O=C(O)CCC(Cc1cn(CCCc2ccccc2)cn1)NC(=O)CCCCCCc1ccccc1 (stereo not shown)" attribute_measured=IC50 readout_number=2500
molecule=O=C(CCCCCCc1ccccc1)N[C@@H](CCc1nnn[nH]1)Cc1ccc(OCc2ccccc2)cc1 attribute_measured=IC50 readout_number=356
molecule=O=C(O)CC[C@@H](Cc1cn(Cc2ccccc2)c2ccccc12)NC(=O)CCCCCCc1ccccc1 attribute_measured=IC50 readout_number=5700
molecule=O=C(CCCCCCc1ccccc1)N[C@@H](COP(=O)(O)CCCOc1ccccc1)Cc1ccc(OCc2ccccc2)cc1 attribute_measured=IC50 readout_number=656
molecule="O=C(O)CCC(Cc1ccc(OCc2ccccn2)cc1)NC(=O)CCCCCCc1ccccc1 (racemic)" attribute_measured=IC50 readout_number=428
molecule=O=C(O)CC[C@@H](CCc1ccc(Oc2ccccc2)cc1)NC(=O)CCCCCCc1cccnc1 attribute_measured=IC50 readout_number=1700
